# Tested on: KRAS-mutant PDC complex spheroid viability;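 note: viability read after seven days of compound exposure; 100% = DMSO vehicle-treated spheroids so lower means less viable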
# ASSAY SUMMARY: Anticancer human tumor 186277-243-T-J2-PDC patient-derived colon adenocarcinoma cell line growth inhibition [KRAS2]
# RECORDED CONDITIONS: second compound 0.0316 µM; first compound 0.1 µM; stronger effect = lower value
I'd appreciate it if you could supply viability, T/C values for the items below.
One number for each entry, in %.

These recorded examples may help you get a feel for the data.
compound="CC1COCCN1c1cc(-c2ccnn2C)c2ccnc(-c3ccn[nH]3)c2n1 (centres undefined) + C=CC(=O)N1CCN(c2nc(OCC3CCCN3C)nc3c2CCN(c2cccc4cccc(C)c24)C3)CC1CC#N" recorded_value=7.37
compound="CC(C)NCC(C(=O)N1CCN(c2ncnc3c2C(C)CC3O)CC1)c1ccc(Cl)cc1 (centres undefined) + C=CC(=O)N1CCN(c2nc(OCC3CCCN3C)nc3c2CCN(c2cccc4cccc(C)c24)C3)CC1CC#N" recorded_value=105
compound="Cn1ncnc1[C@H]1c2n[nH]c(=O)c3cc(F)cc(c23)N[C@@H]1c1ccc(F)cc1 + C=CC(=O)N1CCN(c2nc(OCC3CCCN3C)nc3c2CCN(c2cccc4cccc(C)c24)C3)CC1CC#N" recorded_value=79.8

# ---- query compound ----
Lab note: KRAS-mutant PDC complex spheroid viability assay, enter viability, T/C for CN(C)C/C=C/C(=O)Nc1cc2c(Nc3ccc(F)c(Cl)c3)ncnc2cc1O[C@H]1CCOC1 + C=CC(=O)N1CCN(c2nc(OCC3CCCN3C)nc3c2CCN(c2cccc4cccc(C)c24)C3)CC1CC#N here
112
